# tgt: T1, IL10Rα/IL2Rγ receptor (human) (UniProt Q13651)
# T1 sequence (looked up) 1: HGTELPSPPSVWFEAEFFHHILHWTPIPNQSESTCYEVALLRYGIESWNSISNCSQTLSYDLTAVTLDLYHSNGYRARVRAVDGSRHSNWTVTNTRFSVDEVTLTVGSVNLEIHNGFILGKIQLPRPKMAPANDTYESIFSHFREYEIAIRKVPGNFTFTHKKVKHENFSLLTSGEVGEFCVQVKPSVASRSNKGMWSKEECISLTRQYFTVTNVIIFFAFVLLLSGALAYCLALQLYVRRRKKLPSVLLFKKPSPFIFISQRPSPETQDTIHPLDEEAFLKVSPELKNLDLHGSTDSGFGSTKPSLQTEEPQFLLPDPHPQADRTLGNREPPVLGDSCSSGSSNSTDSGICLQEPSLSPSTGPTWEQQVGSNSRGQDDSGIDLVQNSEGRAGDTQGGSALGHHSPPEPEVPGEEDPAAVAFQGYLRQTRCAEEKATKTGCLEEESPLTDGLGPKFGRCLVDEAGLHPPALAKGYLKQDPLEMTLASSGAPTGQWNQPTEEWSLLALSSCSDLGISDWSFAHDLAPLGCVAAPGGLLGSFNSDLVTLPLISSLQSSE
# T1 sequence (looked up) 2: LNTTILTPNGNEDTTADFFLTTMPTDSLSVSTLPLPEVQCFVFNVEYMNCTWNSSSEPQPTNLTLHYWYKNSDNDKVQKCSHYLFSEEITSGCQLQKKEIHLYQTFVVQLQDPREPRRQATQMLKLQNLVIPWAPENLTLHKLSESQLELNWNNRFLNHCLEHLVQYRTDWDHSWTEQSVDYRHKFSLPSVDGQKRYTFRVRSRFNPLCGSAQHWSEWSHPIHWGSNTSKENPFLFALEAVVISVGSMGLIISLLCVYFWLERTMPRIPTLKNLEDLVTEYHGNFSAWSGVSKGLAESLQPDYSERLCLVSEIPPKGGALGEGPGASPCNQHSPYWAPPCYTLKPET
# testMethodNotes: cell-based or functional assay
measurementKind: IFNγ secretion, CD8 T cells, at 100 µM (pg/mL)
Please respond with the number in pg/mL and leave the unit unwritten.

Note IFNγ secretion, CD8 T cells, at 100 µM for the binder shown: hIL10Ra_VHH14 - hIL2Rg_VHH19, linker …, tag his (bispecific antibody, not shown: small tags and cut ends) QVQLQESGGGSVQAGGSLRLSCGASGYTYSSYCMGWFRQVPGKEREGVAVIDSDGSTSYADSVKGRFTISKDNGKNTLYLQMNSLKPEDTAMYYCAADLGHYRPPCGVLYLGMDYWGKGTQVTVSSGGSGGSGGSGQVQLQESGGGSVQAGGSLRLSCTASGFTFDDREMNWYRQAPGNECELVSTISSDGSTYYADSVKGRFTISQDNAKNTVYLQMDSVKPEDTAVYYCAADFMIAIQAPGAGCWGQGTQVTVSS
141000
